Values from ChEMBL document CHEMBL3244316

System: Mus musculus
Test summary: Anxiolytic activity in ip dosed albino CF-1 mouse under hypoxic stress
Type: functional
Recorded conditions: CF-1, ip
Experimental readout: ED50

Recorded results for 6 compounds are shown here.
O=C1Nc2ccc(Cl)cc2C(c2ccccc2)=NC1O (stereo unspecified) [OXAZEPAM]: 12.5 mg/kg
OCc1nnc2n1-c1ccc(Cl)cc1C(c1ccccc1Cl)=NC2: 0.5 mg/kg
Cc1nnc2n1-c1ccc(Cl)cc1C(c1ccccc1)=NC2O (stereo unspecified) [4-HYDROXY-ALPRAZOLAM]: 6.2 mg/kg
O=C1CN=C(c2ccccc2)c2cc(Cl)ccc2N1 [NORDAZEPAM]: 0.7 mg/kg
Cc1nnc2n1-c1ccc(Cl)cc1C(c1ccccc1Cl)=NC2 [TRIAZOLAM]: 0.035 mg/kg
Cc1nnc2n1-c1ccc(Cl)cc1C(c1ccccc1Cl)=NC2O (stereo unspecified): > 100 mg/kg

# map each compound to its ED50
1. CN1C(=O)CN=C(c2ccccc2)c2cc(Cl)ccc21 [DIAZEPAM]
2. OCc1nnc2n1-c1ccc(Cl)cc1C(c1ccccc1)=NC2O (stereo unspecified)
3. Cc1nnc2n1-c1ccc(Cl)cc1C(c1ccccc1)=NC2 [ALPRAZOLAM]
4. OCc1nnc2n1-c1ccc(Cl)cc1C(c1ccccc1Cl)=NC2O (stereo unspecified)
5. OC1N=C(c2ccccc2)c2cc(Cl)ccc2-n2ccnc21 (stereo unspecified)
6. CN(C)Cc1nnc2n1-c1ccc(Cl)cc1C(c1ccccc1)=NC2O (stereo unspecified)

1. 0.2 mg/kg
2. > 50 mg/kg
3. 0.02 mg/kg
4. 30 mg/kg
5. 60 mg/kg
6. 25 mg/kg
